# Tested on: CAKI-1
# assayProtocol: NCI tumour cell line growth inhibition, 48 h
The source made the active and inactive calls. No stated cut-off is given here; in the data, active = GI50 up to about 1.1 µM and inactive = higher.
testReadout: GI50

[
  {
    "molecule": "CC1=C(C(=S)Nc2ccc(Cl)c(C(=O)OC(C)C)c2)SCCO1",
    "assayedSystem": "CAKI-1",
    "testReadout": "GI50",
    "result": "24.2 µM (inactive)"
  },
  {
    "molecule": "CCN(c1ccc(Br)cc1)c1c(Br)c(=O)nc2ccccn12",
    "assayedSystem": "CAKI-1",
    "testReadout": "GI50",
    "result": "93.1 µM (inactive)"
  },
  {
    "molecule": "O=C(O)CNc1ccc(Cl)c(Cl)c1",
    "assayedSystem": "CAKI-1",
    "testReadout": "GI50",
    "result": "17.9 µM (inactive)"
  },
  {
    "molecule": "C=C(CN(CC)CC)C1(c2ccccc2)CC2(CCCC2)C(=O)O1 (stereo unspecified)",
    "assayedSystem": "CAKI-1",
    "testReadout": "GI50",
    "result": "> 100 µM (inactive)"
  },
  {
    "molecule": "COc1ccc2oc(=N)c(C(=O)Nc3ccccc3)cc2c1",
    "assayedSystem": "CAKI-1",
    "testReadout": "GI50",
    "result": "5.61 µM (inactive)"
  },
  {
    "molecule": "O=C1C2CN(Cc3ccccc3)CC1CN(CC1CC1)C2",
    "assayedSystem": "CAKI-1",
    "testReadout": "GI50",
    "result": "> 100 µM (inactive)"
  }
]

###

# System: SK-MEL-5
# assayProtocol: NCI tumour cell line growth inhibition, 48 h
Activity calls are given as the source filed them. No stated cut-off is given here; in the data, active = GI50 up to about 1.1 µM and inactive = higher.
testReadout: GI50

[
  {
    "molecule": "CC(C)N(C(=O)C12C3C4C5(C#N)C3C1(C#N)C5C42I)C(C)C (stereo not given)",
    "result": "> 100 µM (inactive)"
  },
  {
    "molecule": "NNC(=O)Cc1cccnc1",
    "result": "> 100 µM (inactive)"
  },
  {
    "molecule": "COc1ccc(/C(=N/O)c2ccccc2-c2nc3ccccc3c(=O)n2-c2ccc(S(=O)(=O)Nc3ncccn3)cc2)cc1C",
    "result": "12.8 µM (inactive)"
  },
  {
    "molecule": "COc1ccc(/N=N/C(=N\\c2ccccc2)c2ccc(N(CCC#N)CCC#N)cc2)cc1",
    "result": "47.1 µM (inactive)"
  },
  {
    "molecule": "Cc1ccc(S(=O)(=O)NC(=O)NCC(=O)O)cc1",
    "result": "> 100 µM (inactive)"
  },
  {
    "molecule": "C=C(CO)CC(O)c1ccccc1 (stereo not given)",
    "result": "> 100 µM (inactive)"
  },
  {
    "molecule": "N#CC(NNC(=O)c1c(Cl)c(Cl)c(Cl)c(Cl)c1-c1nc2cc(C(=O)c3ccccc3)ccc2[nH]1)c1ccccc1 (stereo not given)",
    "result": "3.4 µM (inactive)"
  },
  {
    "molecule": "COC(=O)[C@]12CC=C3O[C@@H]4OC5(CCCCC5)O[C@@H]4C3[C@@H]1C(=O)CCC2=O (stereo not given in full)",
    "result": "> 100 µM (inactive)"
  },
  {
    "molecule": "O=C(/C=C/c1ccc(O)c(O)c1)OCCc1ccc2ccccc2c1",
    "result": "3.15 µM (inactive)"
  },
  {
    "molecule": "CC(=O)N1c2ccccc2C(C)(C)OC1C(Cl)(Cl)Cl (stereo not given)",
    "result": "23.8 µM (inactive)"
  }
]

###

# Tested on: UO-31
# assayProtocol: NCI tumour cell line growth inhibition, 48 h
Calls of active or inactive are those of the source. Rule as the data show it: active = GI50 up to about 1.1 µM and inactive = higher.
testReadout: GI50

[
  {
    "molecule": "Cc1ccc(S(=O)(=O)N/N=C2/CC[C@H](C(C)(C)C)C[C@@H]2C)cc1",
    "result": "13.7 µM (inactive)"
  },
  {
    "molecule": "CCOC(=O)NC(OCCN(C)C)(C(F)(F)F)C(F)(F)F",
    "result": "> 100 µM (inactive)"
  },
  {
    "molecule": "CC(C)=CCC[C@]1(C)CC[C@]2(C)C3CCC(=C(C)C)[C@@H](CCCO)[C@]3(C)CC[C@@]2(C)C1 (stereo not given in full)",
    "result": "16.9 µM (inactive)"
  },
  {
    "molecule": "CCN(CC)CCNC(=O)c1cc2cc(NC(=O)c3cc4cc(NC(=O)c5cc6cc([N+](=O)[O-])ccc6[nH]5)ccc4[nH]3)ccc2[nH]1",
    "result": "> 100 µM (inactive)"
  },
  {
    "molecule": "O=C(NCc1ccccc1)c1cc2ccc(O)c(O)c2cn1",
    "result": "18.1 µM (inactive)"
  }
]

###

# System: UO-31
# assayProtocol: NCI tumour cell line growth inhibition, 48 h
Activity calls are given as the source filed them. No stated cut-off is given here; in the data, active = GI50 up to about 1.1 µM and inactive = higher.
Outcomes: T = active, F = inactive

[
  {
    "compound": "Nc1nc2c(ncn2CCOC(c2ccccc2)P(=O)(O)O)c(=O)[nH]1 (configuration not stated)",
    "qualitativeLabel": "F"
  },
  {
    "compound": "COc1ccc(/C(=N/O)c2ccccc2-c2nc3ccccc3c(=O)n2-c2ccc(S(=O)(=O)Nc3ncccn3)cc2)cc1C",
    "qualitativeLabel": "F"
  },
  {
    "compound": "O=[N+]([O-])c1cccc2c1[nH]c1c(-c3ccccc3)nccc12",
    "qualitativeLabel": "T"
  },
  {
    "compound": "COc1ccc(C2SCC(=O)N2NC(=O)C(C)Oc2ccc(Cl)cc2Cl)cc1 (configuration not stated)",
    "qualitativeLabel": "F"
  },
  {
    "compound": "Clc1ccccc1-c1nc2cc(C34CC5CC(CC(C5)C3)C4)ccc2[nH]1",
    "qualitativeLabel": "F"
  },
  {
    "compound": "CC(C)C1=C(Cc2ccccc2)C(=O)O/C1=C\\c1cc(Cl)c(O)c(Cl)c1",
    "qualitativeLabel": "F"
  },
  {
    "compound": "CCC1C(=O)OCc2c1cc1n(c2=O)Cc2ccccc2-1 (configuration not stated)",
    "qualitativeLabel": "F"
  },
  {
    "compound": "Cc1n[nH]c(=O)c2cc(-c3ccccc3)[nH]c12",
    "qualitativeLabel": "F"
  },
  {
    "compound": "COc1ccc(/C=c2/[nH]c(=O)/c(=C\\c3ccc(OCc4ccccc4)cn3)[nH]c2=O)cc1",
    "qualitativeLabel": "T"
  },
  {
    "compound": "COC(=O)/C=C(\\CC(=O)OC)n1nnnc1[C@@H]1C[C@H](COC(c2ccccc2)(c2ccccc2)c2ccccc2)[C@H]2OC(C)(C)O[C@H]21",
    "qualitativeLabel": "F"
  },
  {
    "compound": "COc1ccc(CNc2cc(=O)n(C)c(=O)[nH]2)cc1",
    "qualitativeLabel": "F"
  },
  {
    "compound": "CCCNC(=S)N/C=C1/C(=O)C=C(C)OC1=O",
    "qualitativeLabel": "F"
  }
]

###

Here the recorded GI50 is given for each entry.
# System: CCRF-CEM
# assayProtocol: NCI tumour cell line growth inhibition, 48 h
The source made the active and inactive calls. No stated cut-off is given here; in the data, active = GI50 up to about 1.1 µM and inactive = higher.
testReadout: GI50

[
  {
    "molecule": "Nc1nc(-c2ccccc2/N=N/N2CCCC2)nc2ccccc12",
    "testReadout": "GI50",
    "result": "3.07 µM (inactive)"
  },
  {
    "molecule": "COC(=O)C(c1n[nH]c2ccccc12)C(C(=O)OC)c1n[nH]c2ccccc12 (stereo unspecified)",
    "testReadout": "GI50",
    "result": "24.5 µM (inactive)"
  },
  {
    "molecule": "O=C(NC(=O)c1cc2cc(Br)cc(Br)c2oc1=O)Oc1ccccc1",
    "testReadout": "GI50",
    "result": "> 100 µM (inactive)"
  },
  {
    "molecule": "Cc1ccc2nc(Cl)c(/C=N/N3C(=O)/C(=C/c4ccccc4S)N=C3c3ccccc3)cc2c1",
    "testReadout": "GI50",
    "result": "15.5 µM (inactive)"
  },
  {
    "molecule": "COc1ccc(NC(/C(C(=O)c2ccccc2)=C(\\O)C(=O)/C=C(\\O)c2ccccc2)c2ccc(OC)cc2)cc1 (stereo unspecified)",
    "testReadout": "GI50",
    "result": "32.8 µM (inactive)"
  },
  {
    "molecule": "O=[N+]([O-])c1ccc(C2N3CCCCC3[C@H]3CCCCN23)cc1 (stereo partly specified)",
    "testReadout": "GI50",
    "result": "> 100 µM (inactive)"
  }
]

###

# Tested on: CCRF-CEM
# assayProtocol: NCI tumour cell line growth inhibition, 48 h
The source made the active and inactive calls. No stated cut-off is given here; in the data, active = GI50 up to about 1.1 µM and inactive = higher.
Outcomes: active, inactive

[
  {
    "compound": "CCC(C)C1NC(=O)CNC(=O)C2Cc3c([nH]c4cc(O)ccc34)[S+]([O-])CC(NC(=O)CNC1=O)C(=O)NC(CC(=O)O)C(=O)N1CC(O)CC1C(=O)NC(C(C)C(O)CO)C(=O)N2 (configuration not stated)",
    "qualitativeLabel": "inactive"
  },
  {
    "compound": "C=CC(Cl)(CBr)CCC(Br)C(C)(C)Cl (configuration not stated)",
    "qualitativeLabel": "inactive"
  },
  {
    "compound": "[O-][Cl+3]([O-])([O-])[O-].[O-][Cl+3]([O-])([O-])[O-].c1ccn2c(N3CCOCC3)[n+]3c4ccccc4[n+]4c(N5CCOCC5)n5ccccc5c4c3c2c1",
    "qualitativeLabel": "inactive"
  },
  {
    "compound": "COC(=O)c1cc(Br)c(C(=O)C(Cl)(Cl)Cl)[nH]1",
    "qualitativeLabel": "inactive"
  },
  {
    "compound": "CS(=O)(=O)N(N(CCCl)S(=O)(=O)c1ccccc1)S(C)(=O)=O",
    "qualitativeLabel": "inactive"
  },
  {
    "compound": "C=C(Cl)/C(=C/Cl)CCC(Br)C(C)(C)Cl.C=C(Cl)/C(=C\\Cl)CCC(Br)C(C)(C)Cl (configuration not stated)",
    "qualitativeLabel": "inactive"
  },
  {
    "compound": "OC1(c2ccc(Cl)cc2)c2ccc(CN3CCCC3)cc2C2=NCCN21 (configuration not stated)",
    "qualitativeLabel": "inactive"
  },
  {
    "compound": "COC(=O)C12OCC34C(CC5C(C)=C(O)C(=O)CC5(C)C3C(O)C1O)OC(=O)C(OC(=O)C=C(C)C)C24 (configuration not stated)",
    "qualitativeLabel": "inactive"
  },
  {
    "compound": "Cc1cc(C)nc(NS(=O)(=O)c2ccc(NC(=O)c3cccc4c(Nc5ccc(S(=O)(=O)N=C(N)N)cc5)c5ccc(Cl)cc5nc34)cc2)n1",
    "qualitativeLabel": "inactive"
  },
  {
    "compound": "COc1cc([C@@H]2c3cc4c(cc3[C@@H](OC3OC5COC(C)OC5C(O)C3O)[C@H]3COC(=O)[C@H]23)OCO4)cc(OC)c1O (some centres not stated)",
    "qualitativeLabel": "inactive"
  },
  {
    "compound": "CCc1c2c(nc3ccc(O)cc13)-c1cc3c(c(=O)n1C2)COC(=O)[C@]3(O)CC [7-ETHYL-10-HYDROXYCAMPTOTHECIN]",
    "qualitativeLabel": "active"
  },
  {
    "compound": "COC(=O)C(Cc1cc(OC)c(OC)c(OC)c1)(NC(=O)c1ccccc1)P(=O)(OC)OC (configuration not stated)",
    "qualitativeLabel": "inactive"
  },
  {
    "compound": "O=C(CCN1CCCC1)c1ccc(Oc2ccc(F)cc2)cc1",
    "qualitativeLabel": "inactive"
  },
  {
    "compound": "COc1ccc2c(-c3csc(-c4c[nH]c5ccccc45)n3)c[nH]c2c1",
    "qualitativeLabel": "inactive"
  },
  {
    "compound": "O=c1onc2c3ccccc3ncn12",
    "qualitativeLabel": "inactive"
  },
  {
    "compound": "CSc1cc(Cl)c(C)cc1S(=O)(=O)NC(=O)NNc1cccc(C(F)(F)F)n1",
    "qualitativeLabel": "inactive"
  },
  {
    "compound": "COc1ccc(-c2c(C(C)=O)c(-c3ccccc3)n(C3OC(COC(C)=O)C(OC(C)=O)C(OC(C)=O)C3OC(C)=O)c(=S)c2C#N)cc1 (configuration not stated)",
    "qualitativeLabel": "inactive"
  }
]
